biological target: hKOR (Homo sapiens, UniProt P41145); experiment: biochemical; format: biochemical; settings: read-out: Emax at 1 μM (percentage of maximal response to U50,488H)
Sequence (P41145 whole entry): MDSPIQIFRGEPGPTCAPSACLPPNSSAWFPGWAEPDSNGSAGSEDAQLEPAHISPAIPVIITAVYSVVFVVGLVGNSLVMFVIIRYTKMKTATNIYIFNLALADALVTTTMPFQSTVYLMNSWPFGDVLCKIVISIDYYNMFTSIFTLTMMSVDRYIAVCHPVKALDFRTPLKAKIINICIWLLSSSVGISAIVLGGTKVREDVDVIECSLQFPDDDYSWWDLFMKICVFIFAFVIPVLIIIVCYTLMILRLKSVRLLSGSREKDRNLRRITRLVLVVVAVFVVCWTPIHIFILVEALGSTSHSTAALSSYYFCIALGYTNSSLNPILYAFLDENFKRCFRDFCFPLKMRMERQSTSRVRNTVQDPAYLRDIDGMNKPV
So I've got a bunch of compounds here, and I need their Emax at 1 µM values.
Dear colleague, please return just the value in %, with no unit written.

Lookup: Annotate the compound CC[C@]1(COC)C[C@@H](C(=O)OC)[C@]2(C)CC[C@@H]3C(=O)O[C@H](c4ccoc4)C[C@]3(C)[C@H]2C1=O [Compound 10b] with its measured Emax at 1 µM.
Found: 81

Lookup: Annotate the compound CC[C@]1(COC)C[C@@H](C(=O)OC)[C@]2(C)CC[C@H]3C(=O)O[C@H](c4ccoc4)C[C@]3(C)[C@H]2C1=O [Compound 10a] with its measured Emax at 1 µM.
Found: 83

Lookup: Annotate the compound C=CC[C@]1(COC)C[C@@H](C(=O)OC)[C@]2(C)CC[C@H]3C(=O)O[C@H](c4ccoc4)C[C@]3(C)[C@H]2C1=O [Compound 12a] with its measured Emax at 1 µM.
Found: 99

Lookup: Annotate the compound COC[C@@]1(CCOCCI)C[C@@H](C(=O)OC)[C@]2(C)CC[C@H]3C(=O)O[C@H](c4ccoc4)C[C@]3(C)[C@H]2C1=O [Compound 14a] with its measured Emax at 1 µM.
Found: 98

Lookup: Annotate the compound C=CC[C@]1(COC)C[C@@H](C(=O)OC)[C@]2(C)CC[C@@H]3C(=O)O[C@H](c4ccoc4)C[C@]3(C)[C@H]2C1=O [Compound 12b] with its measured Emax at 1 µM.
Found: 84

Lookup: Annotate the compound COC[C@@]1(CCOCCI)C[C@@H](C(=O)OC)[C@]2(C)CC[C@@H]3C(=O)O[C@H](c4ccoc4)C[C@]3(C)[C@H]2C1=O [Compound 14b] with its measured Emax at 1 µM.
Found: 85
